Catalogue of apparent KD of MS2 coat protein values
tested on: MS2 coat protein; assay: apparent KD of MS2 coat protein; designed switch direction (-1 OFF switch, 1 ON switch): 1; higher = weaker reporter binding; settings: input ligand: microRNA oligo, concentration not stated
// return numeric value only (unit: nM, not printed)

UUGAGGUGUCAAGGAUAUGCUACCGUUUCGGUAGCAGAAGGUGAUCACAUGAGGAUCACCCAUGUAUGCAUGCGUGAGCGUGCU [JL SSNG1 3.61] (Eterna round: R96, puzzle: Same State NG 1) ... 23.4
GCUAGAAUUAAUGCCUACAUGAGGAUCACCCAUGUAUGUAGGCAGGAUAUCGUUUGCUUUGCAAACGAGAAGGGCCUUACUAGC [JL SSNG3 1.10] (Eterna round: R96, puzzle: Same State NG 3) ... 50.8
GCUAGAAUAAAUGCUAACAUGAGGAUCACCCAUGUAUGUUGGCAGGAUAUCGUAUGCAAAGCAUACGAGAAGGGCCAUACUAGC [Mat - Same State NG 3 - JL Mod - D27] (Eterna round: R96, puzzle: Same State NG 3) ... 20.4

Prompt line: Notebook: pull reported apparent KD of MS2 coat protein for MS2 coat protein, entry AAUUAAUUAAUACAUGAGGAUCACCCAUGUAAUUAUUAGAUCAAGGAUAUCAGCUCGUUUAGAGCUGAGAAGGUGAUCACAUGU [SSNG3/18-A3] (Eterna round: R96, puzzle: Same State NG 3)
Response line: 211
